Source of measurements: patent US8658604B2

# Test system: HELA cells (Acc57)
# METHOD NOTES: Cytotoxicity assay (MTT reduction), HELA cells
# Assay type: cell-based
# ASSAY CONTEXT: Hela cells
# Experimental: The cytotoxicity of the peptides to HELA cells (Acc57) and COS-7 cells (CRL-1651) was determined using the MTT reduction assay [see ref. 2 and 3, below]. […] At this point, time zero (Tz) was determined by MTT reduction (see below). […] The absorbance at 595 nm of the solubilized product was measured (OD595peptide). For each concentration averages were calculated from triplicates. […]
Where a SMILES comes first, the peptide text is derived from it.
PROPERTY NAME: Cytotoxicity LC50/GI50 Hela cells (µM)
Answer with a number only, understood to be in µM.

Which measured Cytotoxicity LC50/GI50 Hela cells value corresponds to CCCC[C@@H]1NC(=O)[C@@H]2CCCN2C(=O)[C@H]2CCCN2C(=O)[C@H](CCCNC(=N)N)NC(=O)[C@@H]2CSSC[C@H](NC1=O)C(=O)N[C@@H]([C@@H](C)O)C(=O)N[C@@H](C)C(=O)N[C@@H](CO)C(=O)N[C@@H]([C@@H](C)CC)C(=O)N1CCC[C@H]1C(=O)N1CCC[C@H]1C(=O)N[C@@H](CCC(N)=O)C(=O)N2 [Ex. 92] (HELM PEPTIDE1{[Nle].C.T.A.S.I.P.P.Q.C.R.[dP].P}$PEPTIDE1,PEPTIDE1,2:R3-10:R3|PEPTIDE1,PEPTIDE1,1:R1-13:R2$$$V2.0) ? 93

Which measured Cytotoxicity LC50/GI50 Hela cells value corresponds to CC[C@H](C)[C@@H]1NC(=O)[C@@H]2CCCN2C(=O)[C@@H]2CCCN2C(=O)[C@H](CC(=O)O)NC(=O)[C@H](CO)NC(=O)[C@H](CCCCN)NC(=O)[C@H]([C@@H](C)O)NC(=O)[C@@H]2CSSC[C@H](NC1=O)C(=O)N[C@@H](CCCNC(=N)N)C(=O)N1CCC[C@@H]1C(=O)N1CCC[C@H]1C(=O)N[C@@H](C1CCCCC1)C(=O)N2 [Ex. 12] (HELM PEPTIDE1{[O=C([C@@H](N[*:1])C1CCCCC1)[*:2]].C.T.K.S.D.P.P.I.C.R.[dP].P}$PEPTIDE1,PEPTIDE1,2:R3-10:R3|PEPTIDE1,PEPTIDE1,1:R1-13:R2$$$V2.0) ? 59.3
